- subjectOfTest: Rat brain protein farnesyltransferase (Rattus norvegicus, UniProt Q02293+Q04631)
- Construct: The enzyme was purified according to Reiss, Y., et al., Cell, 62: 81-88 (1990), utilizing steps one through three; from tissue; host or cells: rat brain
- protocolNotes: In vitro inhibition of protein farnesyltransferase (biotin-lamin substrate, scintillation proximity assay)
- Assay type: biochemical
- experimentalConditions: 10 μM; compared to uninhibited control
readoutType: inhibition at 10 µM (%)
Respond with the bare value in %.

Answer with reported inhibition at 10 µM of CCCN(Cc1ccc(Oc2ccccc2)cc1)C(=O)[C@H]1[C@H](C(=O)O)[C@H](C(=O)N(C)CC/C=C(\C)CCC=C(C)C)[C@H]1C(=O)O (relative stereo) 63

Answer with reported inhibition at 10 µM of CCCN(Cc1ccc(Sc2ccccc2)cc1)C(=O)C1C(C(=O)O)C(C(=O)N(CCC)Cc2ccc(Sc3ccccc3)cc2)C1C(=O)O (centres unmarked) 64

Answer with reported inhibition at 10 µM of CN(Cc1cccc(Oc2ccc(F)cc2)c1)C(=O)[C@H]1[C@H](C(=O)O)[C@H](C(=O)N(C)Cc2cccc(Oc3ccc(F)cc3)c2)[C@H]1C(=O)O 78

Answer with reported inhibition at 10 µM of CCCN(Cc1ccc(Cn2cccc2)cc1)C(=O)C1C(C(=O)O)C(C(=O)N(CCC)Cc2ccc(Cn3cccc3)cc2)C1C(=O)O (centres unmarked) 78

Answer with reported inhibition at 10 µM of CN(Cc1ccc(Oc2ccc(F)cc2)cc1)C(=O)[C@H]1[C@H](C(=O)O)[C@H](C(=O)N(C)Cc2ccc(Oc3ccc(F)cc3)cc2)[C@H]1C(=O)O 27

----------
- subjectOfTest: Rat liver microsomal squalene synthase (Rattus norvegicus, UniProt Q02769)
- Construct: Rat liver microsomes, the source of enzyme, were prepared; from tissue; host or cells: rat liver microsomes
- Sequence (Q02769 whole entry): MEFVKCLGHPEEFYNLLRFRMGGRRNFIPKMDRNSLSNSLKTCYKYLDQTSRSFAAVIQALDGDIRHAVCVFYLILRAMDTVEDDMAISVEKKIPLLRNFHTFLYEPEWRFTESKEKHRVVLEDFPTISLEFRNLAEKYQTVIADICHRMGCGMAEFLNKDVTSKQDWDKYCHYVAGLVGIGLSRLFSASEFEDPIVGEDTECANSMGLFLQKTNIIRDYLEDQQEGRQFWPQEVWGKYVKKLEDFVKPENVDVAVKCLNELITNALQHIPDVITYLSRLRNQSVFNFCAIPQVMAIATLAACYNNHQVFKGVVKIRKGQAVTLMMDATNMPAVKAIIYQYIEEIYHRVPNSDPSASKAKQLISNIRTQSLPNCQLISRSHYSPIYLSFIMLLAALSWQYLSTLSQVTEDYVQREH
- protocolNotes: In vitro inhibition of squalene synthase (rat liver microsomes, 3H-farnesyl diphosphate)
- Assay type: biochemical
- experimentalConditions: 10 μM (footnote *); read-out: % Inhibition at 10 μM (squalene synthase, values marked *)
Measured inhibition at 10 µM of individual entries
Respond with the bare value in %.

// worked examples, inhibition at 10 µM included
[
  {
    "molecule": "CN(Cc1ccc(OCc2ccccc2)cc1)C(=O)[C@H]1[C@H](C(=O)O)[C@H](C(=O)N(C)Cc2ccc(OCc3ccccc3)cc2)[C@H]1C(=O)O [Example 15]",
    "inhibition at 10 µM, %": 26
  },
  {
    "molecule": "CN(c1ccc(-c2ccccc2)cc1)C(=O)[C@H]1[C@H](C(=O)O)[C@H](C(=O)N(C)c2ccc(-c3ccccc3)cc2)[C@H]1C(=O)O [Example 23]",
    "inhibition at 10 µM, %": 25
  }
]

Answer with reported inhibition at 10 µM of CN(Cc1cccc(Oc2ccccc2)c1)C(=O)[C@H]1[C@H](C(=O)O)[C@H](C(=O)N(C)Cc2cccc(Oc3ccccc3)c2)[C@H]1C(=O)O [Example 19] 52

----------
- subjectOfTest: Rat brain protein farnesyltransferase (Rattus norvegicus, UniProt Q02293+Q04631)
- Construct: The enzyme was purified according to Reiss, Y., et al., Cell, 62: 81-88 (1990), utilizing steps one through three; from tissue; host or cells: rat brain
- protocolNotes: In vitro inhibition of protein farnesyltransferase (biotin-lamin substrate, scintillation proximity assay)
- Format: biochemical
- experimentalConditions: 10 μM; compared to uninhibited control
Cut-off 50% on inhibition at 10 µM, inclusive. At or above means Fulfilled; below means Not fulfilled.

[
  {
    "molecule": "CCCN(Cc1ccc(Oc2ccc3c(c2)OCO3)cc1)C(=O)C1C(C(=O)O)C(C(=O)N(CCC)Cc2ccc(Oc3ccc4c(c3)OCO4)cc2)C1C(=O)O (stereo not drawn)",
    "classification": "Fulfilled"
  },
  {
    "molecule": "CC[C@@H](C)N(Cc1ccc(Oc2ccccc2)cc1)C(=O)[C@H]1[C@H](C(=O)O)[C@H](C(=O)N(Cc2ccc(Oc3ccccc3)cc2)[C@H](C)CC)[C@H]1C(=O)O",
    "classification": "Not fulfilled"
  },
  {
    "molecule": "COc1ccc(CCN(Cc2ccc(Oc3ccccc3)cc2)C(=O)[C@H]2[C@H](C(=O)O)[C@H](C(=O)N(CCc3ccc(OC)c(OC)c3)Cc3ccc(Oc4ccccc4)cc3)[C@H]2C(=O)O)cc1OC",
    "classification": "Not fulfilled"
  },
  {
    "molecule": "CCCN(Cc1ccc(OC2CCCCC2)cc1)C(=O)[C@H]1[C@H](C(=O)O)[C@H](C(=O)N(CCC)Cc2ccc(OC3CCCCC3)cc2)[C@H]1C(=O)O",
    "classification": "Not fulfilled"
  }
]

Next item in the queue.
Check this molecule for inhibition at 10 µM at or above 50%: O=C(O)CCN(Cc1ccc(Oc2ccccc2)cc1)C(=O)C1C(C(=O)O)C(C(=O)N(CCC(=O)O)Cc2ccc(Oc3ccccc3)cc2)C1C(=O)O (stereo not drawn) Fulfilled
